The reported numbers originate from ChEMBL document CHEMBL5316300.

Quick reference: remaining at 336 h of the listed items.
# Test Summary: Chemical stability of the compound in phosphate buffer at pH 4 assessed as residual rate incubated for 2 weeks by HPLC analysis
# Format: physicochemical
# Condition Set: read-out: Stability
Square brackets hold non-standard residues; d marks the D form. Peptide text beside a SMILES is read from it. * marks the point of attachment. Benzoyl(4-OPh(4-CONH2)) = NC(=O)c1ccc(Oc2ccc(C(=O)*)cc2)cc1; NMeE = CN[C@@H](CCC(=O)O)C(=O)O; β3hP = O=C(O)C[C@@H]1CCCN1; Dab = NCC[C@H](N)C(=O)O; Ava = NCCCCC(=O)O
Measured Property: remaining at 336 h

>>> data_value("CC(C)C[C@H](NC(=O)[C@H](CCN)NC(=O)[C@H](CC(=O)O)NC(=O)[C@H](CCC(=O)O)NC(=O)CCCCNC(=O)c1ccc(Oc2ccc(C(N)=O)cc2)cc1)C(=O)N(C)[C@@H](CCC(=O)O)C(=O)N1CCC[C@H]1CC(N)=O ({Benzoyl(4-OPh(4-CONH2))-Ava}-ED[Dab]L[NMeE][β3hP]-NH2)")
"69.5%"
>>> data_value("CC[C@H](C)[C@@H](C(=O)NCCCCC(N)=O)N(C)C(=O)[C@H](CC(C)C)NC(=O)[C@H](CCN)NC(=O)CC[C@@H](NS(=O)(=O)c1ccc(NC(=O)c2ccc(C(N)=O)cc2)cc1)C(=O)O")
"98.3%"
>>> data_value("CC(C)C[C@H](NC(=O)[C@@H]1C[C@H](N)CN1C(=O)CC[C@@H](NS(=O)(=O)c1ccc(NC(=O)c2ccc(C(N)=O)cc2)cc1)C(=O)O)C(=O)N(C)[C@@H](CCC(=O)O)C(=O)NCCCCC(N)=O")
"98.7%"

###

# Target System: 72 kDa type IV collagenase (Homo sapiens)
# Sequence (P08253 whole entry): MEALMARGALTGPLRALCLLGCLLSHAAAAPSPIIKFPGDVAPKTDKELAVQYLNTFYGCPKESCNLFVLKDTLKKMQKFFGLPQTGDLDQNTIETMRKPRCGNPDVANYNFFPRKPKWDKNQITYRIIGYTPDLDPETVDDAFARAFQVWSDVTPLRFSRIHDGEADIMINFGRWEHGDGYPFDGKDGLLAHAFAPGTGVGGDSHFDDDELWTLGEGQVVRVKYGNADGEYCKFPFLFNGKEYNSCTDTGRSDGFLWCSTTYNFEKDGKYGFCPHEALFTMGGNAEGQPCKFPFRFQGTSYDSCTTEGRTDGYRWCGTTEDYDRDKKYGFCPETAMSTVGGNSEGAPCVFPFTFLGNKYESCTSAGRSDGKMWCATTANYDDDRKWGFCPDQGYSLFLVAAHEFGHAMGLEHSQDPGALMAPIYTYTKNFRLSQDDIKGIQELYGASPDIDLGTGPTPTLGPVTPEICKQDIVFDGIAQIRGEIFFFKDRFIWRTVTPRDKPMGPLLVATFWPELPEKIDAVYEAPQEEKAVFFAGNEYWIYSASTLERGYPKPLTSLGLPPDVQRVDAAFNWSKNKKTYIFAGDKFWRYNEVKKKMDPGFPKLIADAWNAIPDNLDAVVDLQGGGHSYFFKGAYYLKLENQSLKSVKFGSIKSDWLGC
# Test Summary: Inhibition of human recombinant MMP2 using MOCAc-Lys-Pro-Leu-Gly-Leu-A2pr(Dnp)-Ala-Arg-N2 as substrate preincubated for 5 mins followed by substrate addition and measured after 120 mins by fluorescence based assay
Measured Property: IC50 (nM)

>>> data_value("CC(C)C[C@H](NC(=O)[C@@H]1C[C@H](N)CN1C(=O)CC[C@@H](NS(=O)(=O)c1ccc(NC(=O)c2ccc(C(N)=O)cc2)cc1)C(=O)O)C(=O)N(C)[C@@H](CCC(=O)O)C(=O)NCCCCC(N)=O")
0.034

###

# Target System: MMP-2/MMP-13 (Homo sapiens) (UniProt P08253+P45452)
# Test Summary: Selectivity ratio of IC50 for recombinant human MMP13 to IC50 for recombinant human MMP2
# Format: protein assay
Parameter class (string): assigned from measured Ratio IC50. Ranges: low: < 600; intermediate: ≥ 600 and < 1000; high: ≥ 1000

>>> category_label("CC[C@H](C)[C@@H](C(=O)NCCCCC(N)=O)N(C)C(=O)[C@H](CC(C)C)NC(=O)[C@@H]1CNCCN1C(=O)CC[C@@H](NS(=O)(=O)c1ccc(NC(=O)c2ccc(Cl)cc2)cc1)C(=O)O")
"low"
>>> category_label("CC[C@H](C)[C@@H](C(=O)N1CCC[C@H]1CC(N)=O)N(C)C(=O)[C@H](CC(C)C)NC(=O)[C@H](CCN)NC(=O)CC[C@@H](NS(=O)(=O)c1ccc(NC(=O)c2ccc(C(N)=O)cc2)cc1)C(=O)O")
"intermediate"
>>> category_label("CC[C@H](C)[C@@H](C(=O)N1CCC[C@H]1CC(N)=O)N(C)C(=O)[C@H](CC(C)C)NC(=O)[C@H](CCN)NC(=O)CC[C@@H](NS(=O)(=O)c1ccc(-c2ccccc2)cc1)C(=O)O")
"low"
>>> category_label("CC[C@H](C)[C@@H](C(=O)NCCCCC(N)=O)N(C)C(=O)[C@H](CC(C)C)NC(=O)[C@@H]1C[C@H](N)CN1C(=O)CC[C@@H](NS(=O)(=O)c1ccc(NC(=O)c2ccc(C(N)=O)cc2)cc1)C(=O)O")
"intermediate"
>>> category_label("CC(C)C[C@H](NC(=O)[C@@H]1C[C@H](N)CN1C(=O)CC[C@@H](NS(=O)(=O)c1ccc(NC(=O)c2ccc(C(N)=O)cc2)cc1)C(=O)O)C(=O)N(C)[C@@H](CCC(=O)O)C(=O)NCCCCC(N)=O")
"high"
>>> category_label("CC(C)C[C@H](NC(=O)[C@@H]1CCCN1C(=O)CC[C@@H](NS(=O)(=O)c1ccc(NC(=O)c2ccc(C(N)=O)cc2)cc1)C(=O)O)C(=O)N(C)[C@@H](CCC(=O)O)C(=O)NCCCCC(N)=O")
"low"
>>> category_label("CC[C@H](C)[C@@H](C(=O)NCCCCC(N)=O)N(C)C(=O)[C@H](CC(C)C)NC(=O)[C@H](CCN)NC(=O)CC[C@@H](NS(=O)(=O)c1ccc(NC(=O)c2ccc(Cl)cc2)cc1)C(=O)O")
"high"
>>> category_label("CC[C@H](C)[C@@H](C(=O)NCCC(N)=O)N(C)C(=O)[C@H](CC(C)C)NC(=O)[C@H](CCN)NC(=O)CC[C@@H](NS(=O)(=O)c1ccc(NC(=O)c2ccc(Cl)cc2)cc1)C(=O)O")
"high"
>>> category_label("CC[C@H](C)[C@@H](C(=O)NCCCC(N)=O)N(C)C(=O)[C@H](CC(C)C)NC(=O)[C@H](CCN)NC(=O)CC[C@@H](NS(=O)(=O)c1ccc(NC(=O)c2ccc(Cl)cc2)cc1)C(=O)O")
"high"
>>> category_label("CC[C@H](C)[C@@H](C(=O)N1CCC[C@H]1CC(N)=O)N(C)C(=O)[C@H](CC(C)C)NC(=O)[C@H](CCN)NC(=O)CC[C@@H](NS(=O)(=O)c1ccc(NC(=O)c2ccc(Cl)cc2)cc1)C(=O)O")
"low"

###

# Target System: Collagenase 3 (Homo sapiens, UniProt P45452)
# Test Summary: Inhibition of human recombinant MMP13 using MOCAc-Lys-Pro-Leu-Gly-Leu-A2pr(Dnp)-Ala-Arg-N2 as substrate preincubated for 10 to 15 mins followed by substrate addition and measured after 60 to 120 mins by fluorescence based assay
Quick reference: IC50 of the listed items.
Measured Property: IC50 (nM)

>>> data_value("CC[C@H](C)[C@@H](C(=O)NCCCCC(N)=O)N(C)C(=O)[C@H](CC(C)C)NC(=O)[C@H](CCN)NC(=O)CC[C@@H](NS(=O)(=O)c1ccc(NC(=O)c2ccc(C(N)=O)cc2)cc1)C(=O)O")
690
>>> data_value("CC[C@H](C)[C@@H](C(=O)NCCCCC(N)=O)N(C)C(=O)[C@H](CC(C)C)NC(=O)[C@@H]1CNCCN1C(=O)CC[C@@H](NS(=O)(=O)c1ccc(NC(=O)c2ccc(Cl)cc2)cc1)C(=O)O")
370
>>> data_value("CC[C@H](C)[C@@H](C(=O)N1CCC[C@H]1CC(N)=O)N(C)C(=O)[C@H](CC(C)C)NC(=O)[C@H](CCN)NC(=O)CC[C@@H](NS(=O)(=O)c1ccc(NC(=O)c2ccc(Cl)cc2)cc1)C(=O)O")
160
>>> data_value("CC(C)C[C@H](NC(=O)[C@@H]1CCCN1C(=O)CC[C@@H](NS(=O)(=O)c1ccc(NC(=O)c2ccc(C(N)=O)cc2)cc1)C(=O)O)C(=O)N(C)[C@@H](CCC(=O)O)C(=O)NCCCCC(N)=O")
50
>>> data_value("CC[C@H](C)[C@@H](C(=O)NCCCCC(N)=O)N(C)C(=O)[C@H](CC(C)C)NC(=O)[C@H](CCN)NC(=O)CC[C@@H](NS(=O)(=O)c1ccc(NC(=O)c2ccc(Cl)cc2)cc1)C(=O)O")
310
>>> data_value("CC[C@H](C)[C@@H](C(=O)N1CCC[C@H]1CC(N)=O)N(C)C(=O)[C@H](CC(C)C)NC(=O)[C@H](CCN)NC(=O)CC[C@@H](NS(=O)(=O)c1ccc(NC(=O)c2ccccc2)cc1)C(=O)O")
630
>>> data_value("CC[C@H](C)[C@@H](C(=O)N1CCC[C@H]1CC(N)=O)N(C)C(=O)[C@H](CC(C)C)NC(=O)[C@H](CCN)NC(=O)CC[C@@H](NS(=O)(=O)c1ccc(-c2ccccc2)cc1)C(=O)O")
230
>>> data_value("CC[C@H](C)[C@@H](C(=O)N1CCC[C@H]1CC(N)=O)N(C)C(=O)[C@H](CC(C)C)NC(=O)[C@H](CCN)NC(=O)CC[C@@H](NS(=O)(=O)c1ccc(NC(=O)c2ccc(C(N)=O)cc2)cc1)C(=O)O")
280
>>> data_value("CC[C@H](C)[C@@H](C(=O)NCCCC(N)=O)N(C)C(=O)[C@H](CC(C)C)NC(=O)[C@H](CCN)NC(=O)CC[C@@H](NS(=O)(=O)c1ccc(NC(=O)c2ccc(Cl)cc2)cc1)C(=O)O")
280
>>> data_value("CC[C@H](C)[C@@H](C(=O)NCCC(N)=O)N(C)C(=O)[C@H](CC(C)C)NC(=O)[C@H](CCN)NC(=O)CC[C@@H](NS(=O)(=O)c1ccc(NC(=O)c2ccc(Cl)cc2)cc1)C(=O)O")
280
>>> data_value("CC[C@H](C)[C@@H](C(=O)NCCCCCC(N)=O)N(C)C(=O)[C@H](CC(C)C)NC(=O)[C@H](CCN)NC(=O)CC[C@@H](NS(=O)(=O)c1ccc(NC(=O)c2ccc(Cl)cc2)cc1)C(=O)O")
280
